Tested on: CTL2-GFP (C. trachomatis L2/434/Bu, GFP-expressing)
Construct: L2/434/Bu, GFP-expressing
Test: microbe, parasite or virus in culture
Design: Intracellular C. trachomatis growth in HeLa cells, bulk GFP fluorescence relative to DMSO
Details: Chlamydia trachomatis, HeLa, 28.5 h; bulk GFP, mean of 2; read-out: % of control remaining
OUTCOME MEASURE: activity at 10 µM

Solved cases below.
| COMPOUND | activity at 10 µM |
| --- | --- |
| CC(C)(C)c1ccc(N(C2CCNCC2)S(=O)(=O)c2cccc(C(F)(F)F)c2)cc1 [CBK165056T] | 24.3% |
| O=[N+]([O-])c1cc2c(cc1C(Nc1ccccn1)c1cc(Cl)c3cccnc3c1O)OCO2 (centres unmarked) | 79.7% |
| CN1CCCN(c2cc(C(F)(F)F)c3scc(C(=O)NCc4cccc(F)c4F)c3n2)CC1 [CBK036386T] | 57.7% |

Exam item: activity at 10 µM for O=C(O)c1cn(C2CC2)c2cc(N3CCN(C(=O)C4CCCO4)CC3)c(F)cc2c1=O (centres unmarked) ?
Marked response: 0.67%

Exam item: Please do the same for C1=C(CCNCCc2ccccc2)c2ccccc2C12CCCC2 as well.
Marked response: 3.86%

Exam item: Please do the same for CC(C)c1ccc(/C=C/C(=O)NCc2ccc(NS(C)(=O)=O)cc2)cc1 as well.
Marked response: 43.8%

Exam item: Please do the same for OC(COc1ccc(Br)cc1)CN1CCCN(c2nc3ccc(Cl)cc3s2)CC1 (centres unmarked) as well.
Marked response: 43.8%

Exam item: Please do the same for Cc1ccc(N2C(=O)c3[nH]nc(C)c3C2c2ccc(O)cc2)cc1 (centres unmarked) as well.
Marked response: 54.1%

Exam item: Please do the same for O=C(NS(=O)(=O)c1cccc(-c2nnco2)c1)C1CC1C1CCCCC1 (centres unmarked) as well.
Marked response: 143%

Exam item: Please do the same for FC(F)(F)c1ccc(N2CCNCC2)nc1OCc1ccc2c(c1)OCCO2 [CBK003994A] as well.
Marked response: 22.5%

Exam item: Please do the same for CC(C)(CNS(=O)(=O)c1ccc(F)cc1)CNS(=O)(=O)c1ccc(F)cc1 as well.
Marked response: 0%

---

Assay: in vitro
Conditions: human, hela cells, % viability
The label is Criterion met for viability at 28.5 h, 10 µM below 90% and Criterion not met for viability at 28.5 h, 10 µM equal to or exceeding 90%.

These solved cases illustrate the format of a correct answer.
| COMPOUND | CAT |
| --- | --- |
| Cc1ccc(OC(=O)c2ccc(S(=O)(=O)N(C)C)cc2)c(-n2nc3ccccc3n2)c1 [CBK267805] | Criterion met |
| COC(=O)c1ccc(NC(=O)CC2Sc3ccc(C(F)(F)F)cc3NC2=O)cc1 (stereo not shown) [CBK264645] | Criterion not met |
| Cc1cc(O)nc(SCCOCCSc2ccc(Cl)cc2)n1 [CBK267372] | Criterion not met |
| O=C(NC1CCN(CC(F)(F)F)C1=O)c1cc(Cl)ccn1 (stereo not shown) [CBK305223] | Criterion not met |
| C=CCn1cc(CN(CCN(C)C)Cc2ccc(C)o2)c(C)n1 [CBK282844] | Criterion not met |
| Cc1[nH]c2ccccc2c1C(=O)CSc1nccn1Cc1ccccc1 [CBK297905] | Criterion met |
| COc1ccccc1N1CCN(CCC(=O)Nc2cccc(F)c2)CC1 [CBK264254C] | Criterion not met |
| Cc1nc(CCNC(=O)c2nn(-c3cccc(C(C)C)c3)cc2O)cs1 [CBK305438] | Criterion not met |

Exam item: API: query returns whether the compound falls strictly under 90% in viability at 28.5 h, 10 µM. Query: CCN(CC)C(=O)c1ccsc1NS(=O)(=O)c1cccc2cccnc12 [CBK042317]
Marked response: Criterion met

Exam item: Please do the same for COc1cc2c(cc1OC)C1(CCN(CCCC(F)(F)F)CC1)NC(=O)C2 [CBK039859] as well.
Marked response: Criterion not met

Exam item: Please do the same for O=C(CC(CC(=O)c1ccc(Cl)cc1)c1ccccc1C(=O)O)c1ccc(Cl)cc1 [CBK265604] as well.
Marked response: Criterion not met

---

Test: in vitro
Settings: human, hela cells, % viability
The following compounds are shown together with reported viability at 28.5 h, 10 µM values.
// return numeric value only (unit: %, not printed)

| SMILES NOTATION | viability at 28.5 h, 10 µM [%] |
| --- | --- |
| CCc1nc2ccc(C(=O)N3CCCCC3)cn2c1N(CC)Cc1ccc2c(c1)OCCO2 | 100 |
| COc1cc(NS(=O)(=O)c2ccc(NC(=O)c3cccnc3)cc2)ncn1 | 93 |
| O=C(COc1ccccc1)Nc1ccccc1CO | 97.9 |
| CCCc1ccc(C(=O)N2CCC(C(=O)c3cccnc3)CC2)o1 | 101 |

# evaluate next
Exam item: viability at 28.5 h, 10 µM for CCNc1nc(-c2ccc3c(c2)CCCN3S(C)(=O)=O)cs1 ?
Marked response: 89.8

---

The following compounds are shown together with reported viability at 28.5 h, 10 µM values.
Experiment: in vitro
Details: human, hela cells, % viability
Give the figure together with its unit, number first.

Solved cases below.
| SMILES NOTATION | viability at 28.5 h, 10 µM |
| --- | --- |
| O=C(Cc1ccc(Br)cc1)Nc1cc(C(=O)O)cc(C(=O)O)c1 | 88.8% |
| Cc1ccc(C)c(N2CCN(S(=O)(=O)c3ccc(-c4ccccc4)cc3)CC2)c1 | 104% |
| CCN(C(=O)c1n[nH]c2c1CCC2)C1CCN(C)CC1 | 102% |
| COc1ccc(-n2cc(-c3ccncc3)nn2)cc1OC | 109% |
| COc1ccc(-c2nc(-c3cccs3)cnc2N)cc1OC | 107% |
| Cc1ccc(S(N)(=O)=O)cc1NC(=O)c1ccc[nH]1 | 91.2% |

# evaluate next
Exam item: viability at 28.5 h, 10 µM for O=C(O)CSc1c[nH]c2ccccc12 ?
Marked response: 93.9%

---

Test: in vitro
Details: human, hela cells, % viability
The following compounds are shown together with reported viability at 28.5 h, 10 µM values.
// return numeric value only (unit: %, not printed)

Solved cases below.
| COMPOUND | MEASURED RESULT |
| --- | --- |
| Cc1nc(COc2ccccc2Cl)sc1-c1ccnc(N)n1 | 91.3 |
| COCCNC(=O)N1CCCC(CO)C1 (stereo not shown) | 88.3 |
| CC(=O)Nc1ccc(S(=O)(=O)Nc2ccnc(N3CCN4CCCC4C3)n2)cc1 (stereo not shown) [CBK000380C] | 91.1 |

Exam item: viability at 28.5 h, 10 µM for Nc1cc(=O)[nH]c(SCC(=O)Nc2ccc(S(N)(=O)=O)cc2)n1 ?
Marked response: 91.2

---

Test: in vitro
Settings: human, hela cells, % viability
The label is True for viability at 28.5 h, 10 µM below 90% and False for viability at 28.5 h, 10 µM equal to or exceeding 90%.

These solved cases illustrate the format of a correct answer.
| MOLECULE | CAT |
| --- | --- |
| Cc1c(C(=O)NC(C)c2ccncc2)oc2c(F)cccc12 (stereo not shown) | False |
| Cc1ccc(S(=O)(=O)NC(C)(C)CSc2ccccn2)cc1 | True |
| COc1ccc(C(=O)Nc2nc(-c3nc4ccccc4s3)cs2)cc1 | False |
| COc1ccc(CCC(=O)N2CCC(N(C)Cc3ccc(-c4ccc(S(C)(=O)=O)cc4)nc3)CC2)cc1Cl [CBK164102T] | True |
| Cn1cncc1CN1CCNC(=O)C1c1ccccc1C(F)(F)F (stereo not shown) | False |
| COc1cc(Nc2cncc(-c3cccs3)n2)cc(OC)c1OC | True |
| Cc1cc(Cl)cc(Cl)c1OCCCc1c(C)n[nH]c1C [CBK025733C] | True |
| O=C1N[C@@]2(CC3CCC2CC3C(=O)NC2CC2)Nc2ccccc21 (stereo partly shown) | True |

Exam item: API: query returns whether the molecule falls strictly under 90% in viability at 28.5 h, 10 µM. Query: O=C(NC(c1ccccc1)c1ccccn1)C1CCN(C(=O)Oc2ccccc2)CC1 (stereo not shown)
Marked response: False

Exam item: Please do the same for Cc1ccc(OCC(=O)Nc2sc3c(c2C(N)=O)CCCCC3)c([N+](=O)[O-])c1 as well.
Marked response: False

Exam item: Please do the same for Cc1nccn1CCC(=O)N1CCc2[nH]c3ccccc3c2C1 as well.
Marked response: False

Exam item: Please do the same for CC1=NN(c2ccc(S(N)(=O)=O)cc2)C(=O)/C1=C/c1ccc(-c2ccc3c(c2)COC3=O)o1 as well.
Marked response: False

Exam item: Please do the same for CCn1c2ccccc2c2cc(CN3CCN(c4ccccc4OC)CC3)ccc21 as well.
Marked response: True
